Target Or System: panel of 60 human kinases (Homo sapiens, UniProt P11802)
Construct: purchased Reaction Biology Corp
Sequence (P11802 whole entry): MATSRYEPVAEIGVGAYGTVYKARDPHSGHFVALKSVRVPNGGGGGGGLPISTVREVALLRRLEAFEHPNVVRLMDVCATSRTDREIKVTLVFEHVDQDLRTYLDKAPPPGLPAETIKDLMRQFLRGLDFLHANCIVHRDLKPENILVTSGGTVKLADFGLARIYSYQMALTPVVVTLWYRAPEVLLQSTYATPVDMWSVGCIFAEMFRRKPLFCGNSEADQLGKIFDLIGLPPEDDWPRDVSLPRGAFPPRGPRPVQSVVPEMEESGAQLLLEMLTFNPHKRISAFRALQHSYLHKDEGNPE
Protocol Notes: Radiolabeled ATP kinase assay, panel of 60 kinases (Table S5)
Assay type: biochemical
Experimental Context: CDK4/cyclin D3; 0.1 μM; 10 μM ATP; read-out: % Enzyme Activity (relative to DSMO controls)
Below, each entry is listed with its recorded remaining activity at 0.1 µM.
Note: unit % is implicit; provide only the numeric part.

Recorded remaining activity at 0.1 µM, per entry:
In: Look up remaining activity at 0.1 µM for this molecule: CN1CCN(Cc2ccc(-c3cnc4[nH]cc(-c5ccccc5Cl)c4c3)cc2)CC1
Out: 39.7

In: Repeat with CN1CCN(Cc2ccc(-c3cnc4[nH]cc(-c5ccc6c(c5)OCCO6)c4c3)cc2)CC1
Out: 26.7

In: Repeat with CN1CCN(Cc2ccc(-c3cnc4[nH]cc(-c5cnn(Cc6ccccc6)c5)c4c3)cc2)CC1
Out: 26

Next molecule, please.
In: Look up remaining activity at 0.1 µM for this molecule: CN1CCN(Cc2ccc(-c3cnc4[nH]cc(-c5ccncc5)c4c3)cc2)CC1
Out: 37

The values you see were collected from patent US12227500B2.
